Property: melting point

COc1ccc(S(=O)(=O)NCC(C(=O)NO)C2(CC(C)C)CCN(CCc3ccccc3)C2=O)cc1 (stereo not given): 195 to 196 °C
CCCCc1ccc(C(=O)NCc2c[nH]c(=S)n2[C@H]2CCc3c(F)cc(F)cc3C2)nc1: 99 to 104 °C
COc1ccc(C(=O)c2c(Cl)cc(Cl)cc2Cl)cc1Cc1ccc(=O)n(C)n1: 150 °C

Give measured melting point for every item shown.
1. CC(=O)N1CCc2nc(C)nc(-c3ccc(Cl)cc3)c2C1
2. CCOC(=O)C[C@H]1O[C@H](c2ccc(O)cc2OC)c2cc(Cl)ccc2N(CC(C)(C)C)C1=O (relative stereo)
3. CC(=O)Nc1ccc(C(C)=O)cc1CN(C)C
4. Clc1ccc(NN=Cc2ccccc2)cc1
5. CC1(C)Oc2ccc(C#N)cc2C(Oc2ccnnc2)C1(C)O (stereo not given)

1. 139 to 141 °C
2. 197 to 199 °C
3. 68 to 72 °C
4. 122 to 123 °C
5. 103 to 105 °C

Give measured melting point for every item shown.
1. Nc1ccc(F)c(C(=O)NCC(=O)O)c1
2. COc1ccc2cccc(CO)c2c1
3. CCCCc1ncc(/C=C(\Cc2ccc([N+](=O)[O-])cc2)C(=O)O)n1Cc1ccccc1Cl
4. Nc1nc2c(s1)CCN(CC=Cc1cccc(OCc3ccccc3)c1)CC2
5. CN1C(=O)CN=C(c2ccccc2F)c2cc(NC(=O)NCCCO)ccc21
6. Cc1ccc(C2CCCN2S(=O)(=O)c2ccc(F)cc2)cc1 (racemic)
7. CCOc1ccc(-c2c(C)c3cc(O)ccc3n2Cc2ccc(OCCN3CCCCC3)cc2)cc1

["252 to 254 °C", "72 to 74 °C", "207 to 208 °C", "78 to 80 °C", "118 to 119 °C", "112 °C", "173 to 175 °C"]

Give measured melting point for every item shown.
1. CC[C@H]1[C@@H](O)C(F)(F)C(=O)N1c1ccc(C#N)c(Cl)c1
2. CNC(=NS(C)(=O)=O)NCCCCCc1nc(N)nc(NC(N)=NCC(F)(F)F)n1
3. CCOC(=O)\C=C(C)/C=C/C=C(C)/C=C/C1=C(C)C[C@@H](O)CC1(C)C

["137 to 140 °C", "131 to 133 °C", "93 to 95 °C"]

Give measured melting point for every item shown.
1. CCNc1cccc2c(S(=O)(=O)Nc3cnc(Br)cn3)cccc12
2. CCOC(=O)COc1ccc(C(=O)c2ccc(O)cc2)c(Cl)c1Cl

220 to 222 °C
127 to 129 °C

---

Hi there, I'd appreciate the recorded melting point for every entry that follows.

CCOc1nn(Cc2ccc(OCc3nc(-c4ccccc4)oc3C)cc2)cc1CCC(=O)O: 96 to 97 °C
CCCC1(C2CCCC2)Cc2cc(OCCCC(=O)O)c(Cl)c(Cl)c2C1=O (stereo not given): 140 to 141 °C
OCC1OC(n2c(SCc3ccccc3)nc3cc(Cl)c(Cl)cc32)C(O)C1O (stereo not given): 196 to 198 °C
Nc1cc(-c2ccccc2)cc2nc(-c3ccccc3)nn12: 214 to 216 °C

Proceed to the following item.
Request the reported melting point associated with Cc1ccsc1C=C1C(=O)COC1=O
164 to 166 °C
